Assay: Covalent protein binding in human liver microsomes assessed per mg protein at 10 uM preincubated for 5 mins followed by UDPGA addition and measured after 60 mins by liquid scintillation counting method
Type: ADME, Microsome
Conditions: 1 h
Items are presented alongside their recorded PB.

{"columns": ["molecule", "PB"],
 "data": [
  ["CC(C)Cc1ccc(C(C)C(=O)O)cc1 (configuration not stated) [IBUPROFEN]", "1000 to 8600 pmol"]
]}

query: Returns the measured PB for the input molecule. Input: CC(C)Cc1ccc(CC(=O)O)cc1 [IBUFENAC]
result: 1000 to 8600 pmol

---

Items are presented alongside their recorded half-life.
Assay: Half life in potassium phosphate buffer by liquid chromatography-tandem mass spectrometry
Assay type: physicochemical
# number only, unit h dropped from output

A selection of reference data follows.
{"columns": ["chemical.smiles", "uom", "half-life"],
 "data": [
  ["Cc1ccc(Cl)c(Nc2ccccc2C(=O)O)c1Cl", "h", 28.1],
  ["Cc1cccc(Nc2ccccc2C(=O)O)c1C", "h", 16.5]
]}

Please look at the following molecule next.
query: Returns the measured half-life for the input molecule. Input: `CCCN(CCC)S(=O)(=O)c1ccc(C(=O)O)cc1`
result: 0.27
